molecular target: human FLT3 protein (FLT3 (WT)) (Homo sapiens, UniProt P36888); construct: human FLT3 protein (intracellular region, 564 to 993 aa); GST; purchased Carna Biosciences; host or cells: baculovirus expression system; experiment: FLT3 inhibition test (FLT3 enzyme inhibition, time-resolved fluorescence of substrate peptide phosphorylation); format: biochemical; details: GST-fused human FLT3 (564 to 993 aa), ATP 50 μM; read-out: FLT3 (WT) enzyme inhibition activity
Sequence (P36888 564-993): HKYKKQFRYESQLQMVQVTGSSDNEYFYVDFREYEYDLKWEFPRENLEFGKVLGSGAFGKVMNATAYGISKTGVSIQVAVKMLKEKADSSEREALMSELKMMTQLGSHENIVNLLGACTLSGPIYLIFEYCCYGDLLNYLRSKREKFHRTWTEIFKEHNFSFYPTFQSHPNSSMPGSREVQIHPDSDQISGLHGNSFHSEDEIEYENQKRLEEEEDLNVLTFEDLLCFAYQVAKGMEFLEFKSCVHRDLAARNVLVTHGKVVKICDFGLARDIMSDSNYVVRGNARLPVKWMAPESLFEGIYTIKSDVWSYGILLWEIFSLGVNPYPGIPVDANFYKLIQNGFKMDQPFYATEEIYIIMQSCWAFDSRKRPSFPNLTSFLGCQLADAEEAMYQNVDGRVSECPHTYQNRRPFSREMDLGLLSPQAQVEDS
pIC50: −log10 of the molar value.
metric_name: pIC50

For `CCCNc1nc(Nc2cccc(F)c2)ncc1C#Cc1cccc(NC(=O)[C@H](C)N(C)C(=O)/C=C/CN(C)C)c1` , what is its reported pIC50?
> 8.00

Same read-out for `CCCNc1nc(Nc2ccc(C#N)cc2)ncc1C#Cc1cccc(NC(=O)[C@H](C)N(C)C(=O)/C=C/CN(C)C)n1` ?
> 8.00

Same read-out for `CCCNc1nc(Nc2ccc(C(N)=O)cc2)ncc1C(=O)NCCCN[C@@H]1CCCC[C@@H]1NC(=O)/C=C/CN(C)C` ?
> 8.00

Same read-out for `CCCNc1nc(Nc2cccc(F)c2)ncc1C(=O)Nc1cccc(NC(=O)[C@H](C)N(C)C(=O)/C=C/CN(C)C)c1` ?
> 8.00

Turning now to a further record.
For `CCCNc1nc(Nc2ccc(C(N)=O)cc2)ncc1C#Cc1cccc(NCCNC(=O)/C=C/CN(C)C)c1` , what is its reported pIC50?
> 8.00

* * *

target: human FLT3 protein (FLT3 (WT)) (Homo sapiens); construct: human FLT3 protein (intracellular region, 564 to 993 aa); GST; purchased Carna Biosciences; host or cells: baculovirus expression system; test: FLT3 inhibition test (FLT3 enzyme inhibition, time-resolved fluorescence of substrate peptide phosphorylation); format: biochemical; conditions: GST-fused human FLT3 (564 to 993 aa), ATP 50 μM; read-out: FLT3 (WT) enzyme inhibition activity
metric_name: IC50

As a guide, the following entries are already answered.
Query for human FLT3 protein (FLT3 (WT)) (Homo sapiens): what IC50 does the record show for COc1nc(Nc2ccc(F)nc2)ncc1C#C[C@@H]1CCC[C@H](NC(=O)[C@H](C)N(C)C(=O)/C=C/CN(C)C)C1 [Compound 15-2] ?
< 10 nM

Same read-out for CCCNc1nc(Nc2ccc(C(N)=O)cc2)ncc1C(=O)Nc1cccc(NC2CCCN(C(=O)/C=C/CN(C)C)C2)c1 (stereo not drawn) [Compound 3-19] ?
< 10 nM

Same read-out for CCCNc1nc(Nc2cccc(F)c2)ncc1C#CCCCNC(=O)[C@@H]1CC(F)(F)CN1C(=O)/C=C/CN(C)C [Compound 7-53] ?
10 to 100 nM

Same read-out for CNc1ncc(C#C[C@H]2C[C@@H](NC(=O)[C@H](C)N(C)C(=O)/C=C/CN(C)C)C2)c(Nc2ccc(OC)nc2)n1 [Compound 13-22] ?
< 10 nM

Same read-out for CCCNc1nc(Nc2cccc(F)c2)ncc1C#Cc1cccc(NC(=O)[C@H](C)N(C)C(=O)/C=C/CN(C)C)n1 [Compound 8-20] ?
10 to 100 nM

Turning now to a further record.
Query for human FLT3 protein (FLT3 (WT)) (Homo sapiens): what IC50 does the record show for CCCNc1nc(Nc2ccc(C(N)=O)cc2)ncc1C#CCCCNC(=O)[C@H](C)N(C)C(=O)/C=C/CN(C)C [Compound 7-4] ?
< 10 nM
